Value source: ChEMBL document CHEMBL2321662

tested_on: Sodium-dependent dopamine transporter (Homo sapiens)
Sequence (Q01959 whole entry): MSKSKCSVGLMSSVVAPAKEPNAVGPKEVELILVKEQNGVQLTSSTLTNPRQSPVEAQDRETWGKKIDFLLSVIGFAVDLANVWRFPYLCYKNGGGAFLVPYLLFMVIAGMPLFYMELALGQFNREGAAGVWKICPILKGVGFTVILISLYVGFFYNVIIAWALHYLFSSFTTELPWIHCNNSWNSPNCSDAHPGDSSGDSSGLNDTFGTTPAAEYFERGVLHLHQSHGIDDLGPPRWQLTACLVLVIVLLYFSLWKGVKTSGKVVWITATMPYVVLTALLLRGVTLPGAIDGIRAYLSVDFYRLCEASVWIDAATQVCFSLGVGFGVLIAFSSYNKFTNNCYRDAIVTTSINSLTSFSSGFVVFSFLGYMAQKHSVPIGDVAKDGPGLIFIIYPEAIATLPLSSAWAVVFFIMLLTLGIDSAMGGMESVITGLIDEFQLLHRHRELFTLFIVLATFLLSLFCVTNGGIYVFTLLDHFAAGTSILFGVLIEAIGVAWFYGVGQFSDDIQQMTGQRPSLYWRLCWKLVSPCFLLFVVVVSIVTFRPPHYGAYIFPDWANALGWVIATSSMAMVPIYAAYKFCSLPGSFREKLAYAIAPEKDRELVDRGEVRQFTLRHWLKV
assay_info: Inhibition of human recombinant DAT expressed in HEK cells
pKi: −log10 of the molar value.

{"molecule": "OCCN1CC=CC[C@H](c2ccc(Cl)c(Cl)c2)C1", "pKi": 7.43}
{"molecule": "CN1CC=CCC(c2ccc(Cl)c(Cl)c2)C1 (racemic)", "pKi": 8.30}
{"molecule": "CN1CC=CC[C@H](c2ccc(Cl)c(Cl)c2)C1", "pKi": 8.52}
{"molecule": "Clc1ccc([C@H]2CC=CCNC2)cc1Cl", "pKi": 8.22}
{"molecule": "Clc1ccc(C2CCCCNC2)cc1Cl (racemic)", "pKi": 7.96}
{"molecule": "CN1CC=CC[C@@H](c2ccc(Cl)c(Cl)c2)C1", "pKi": 7.89}
{"molecule": "Cc1cc(C2CC=CCNC2)ccc1Cl (centres undefined)", "pKi": 7.62}
{"molecule": "OCC[C@]1(c2ccc(Cl)c(Cl)c2)CCCNC1", "pKi": 8.03}
{"molecule": "Cc1ccc(C2CC=CCNC2)cc1Cl (centres undefined)", "pKi": 7.31}
